The measured values listed here are drawn from patent US9481676B2.

target.of.assay: human recombinant adrenergic α1D receptor (Homo sapiens, UniProt P25100)
Construct: expressed in transfected cells; host or cells: HEK-293 cells
Sequence (P25100 whole entry): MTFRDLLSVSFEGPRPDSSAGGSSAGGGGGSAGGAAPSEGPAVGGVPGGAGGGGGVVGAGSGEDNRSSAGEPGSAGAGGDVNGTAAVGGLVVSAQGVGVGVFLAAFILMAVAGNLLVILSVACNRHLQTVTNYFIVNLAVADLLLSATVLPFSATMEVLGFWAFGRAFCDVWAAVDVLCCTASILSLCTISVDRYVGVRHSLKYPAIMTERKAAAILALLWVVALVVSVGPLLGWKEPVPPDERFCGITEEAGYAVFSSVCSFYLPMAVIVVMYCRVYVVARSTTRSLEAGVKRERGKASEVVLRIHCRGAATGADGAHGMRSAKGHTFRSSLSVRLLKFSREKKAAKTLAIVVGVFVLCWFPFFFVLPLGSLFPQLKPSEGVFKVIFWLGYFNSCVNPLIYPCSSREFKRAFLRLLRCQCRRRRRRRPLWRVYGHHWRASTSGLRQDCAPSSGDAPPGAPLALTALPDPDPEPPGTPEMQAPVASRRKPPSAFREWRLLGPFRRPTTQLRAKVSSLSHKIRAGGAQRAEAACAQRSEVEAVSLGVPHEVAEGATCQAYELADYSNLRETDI
protocol: Adrenergic alpha1D radioligand binding ([3H]Prozosin)
measurement.context: compound at 1 μM; read-out: Adrenergic (1 μM) α1D, percent inhibition of specific binding
This listing pairs compounds with measured inhibition at 1 µM.

# compound, target.of.assay, inhibition at 1 µM
records = [
    ("Cc1ccc2c(c1)c1c(n2CCc2cncc(Cl)c2)CCN(C)CC1 [Compound No. 4]", "human recombinant adrenergic α1D receptor (Homo sapiens, UniProt P25100)", "76%"),
    ("CN1CCc2c(n(CCc3ccc(C(=O)O)nc3)c3ccc(Cl)cc23)CC1 [Compound No. 21]", "human recombinant adrenergic α1D receptor (Homo sapiens, UniProt P25100)", "17%"),
    ("COc1ccc(C(O)Cn2c3c(c4cc(Cl)ccc42)CCN(C)CC3)cc1 (stereo not drawn) [Compound No. 47]", "human recombinant adrenergic α1D receptor (Homo sapiens, UniProt P25100)", "97%"),
    ("C=C(Cn1c2c(c3cc(Cl)ccc31)CCN(C)CC2)c1ccc(Cl)cc1 [Compound No. 35]", "human recombinant adrenergic α1D receptor (Homo sapiens, UniProt P25100)", "96%"),
    ("CN1CCc2c(n(CC(C)(O)c3ccc(Cl)cc3)c3ccc(Cl)cc23)CC1 (stereo not drawn) [Compound No. 12]", "human recombinant adrenergic α1D receptor (Homo sapiens, UniProt P25100)", "68%"),
    ("Cc1ccc2c(c1)c1c(n2CC(=O)NC2CCCCC2)CCN(C)CC1 [Compound No. 22]", "human recombinant adrenergic α1D receptor (Homo sapiens, UniProt P25100)", "1%"),
    ("Cc1ccc2c(c1)c1c(n2CCc2ccc(C(F)(F)F)nc2)CCN(C)CC1 [Compound No. 20]", "human recombinant adrenergic α1D receptor (Homo sapiens, UniProt P25100)", "91%"),
    ("CN1CCc2c(n(CCc3cncc(Cl)c3)c3ccc(Cl)cc23)CC1 [Compound No. 10]", "human recombinant adrenergic α1D receptor (Homo sapiens, UniProt P25100)", "89%"),
    ("CN1CCc2c(n(C#Cc3ccc(F)cc3)c3ccc(Cl)cc23)CC1 [Compound No. 281]", "human recombinant adrenergic α1D receptor (Homo sapiens, UniProt P25100)", "75%"),
]
